Data provenance: patent US7759331B2

- Experimental Target: UniProtKB P05129
- Experiment Description: Protein kinase selectivity panel
- Type: biochemical
- Cond: 1.0 μM compound, 10 μM ATP
Each entry below lists one item and its recorded Activity at Protein Kinase Assays (% of control), PKCγ(h) value.

Reference set (3 entries):
>  <Compound>
CN(C)c1cc2cc(n1)CCCn1cc(c3ccccc31)C1=C(C(=O)NC1=O)c1cn(c3ccccc13)CCC2 [Cpd 2]

>  <Experimental Target>
UniProtKB P05129

>  <Result Value>
107 % of control

$$$$
>  <Compound>
O=C1NC(=O)C2=C1c1cn(c3ccccc13)CCCc1ccc(c(N3CCCC3)n1)CCCn1cc2c2ccccc21 [Cpd 7]

>  <Experimental Target>
UniProtKB P05129

>  <Result Value>
102 % of control

$$$$
>  <Compound>
CN(C)c1nc2ccc1CCCCn1cc(c3ccccc31)C1=C(C(=O)NC1=O)c1cn(c3ccccc13)CCC2 [Cpd 1]

>  <Experimental Target>
UniProtKB P05129

>  <Result Value>
91 % of control

$$$$

Log: UniProtKB P05129, compound O=C1NC(=O)C2=C1c1cn(c3ccccc13)CCCc1cc(nc(N3CCCC3)c1)CCCn1cc2c2ccccc21 [Cpd 6] , Activity at Protein Kinase Assays (% of control), PKCγ(h) = 99 % of control

###

Each entry below lists one item and its recorded Activity at Protein Kinase Assays (% of control), PDGFRα(h) value.
- Experimental Target: PDGFRα(h) (Homo sapiens, UniProt P16234)
- Sequence (P16234 24-1089): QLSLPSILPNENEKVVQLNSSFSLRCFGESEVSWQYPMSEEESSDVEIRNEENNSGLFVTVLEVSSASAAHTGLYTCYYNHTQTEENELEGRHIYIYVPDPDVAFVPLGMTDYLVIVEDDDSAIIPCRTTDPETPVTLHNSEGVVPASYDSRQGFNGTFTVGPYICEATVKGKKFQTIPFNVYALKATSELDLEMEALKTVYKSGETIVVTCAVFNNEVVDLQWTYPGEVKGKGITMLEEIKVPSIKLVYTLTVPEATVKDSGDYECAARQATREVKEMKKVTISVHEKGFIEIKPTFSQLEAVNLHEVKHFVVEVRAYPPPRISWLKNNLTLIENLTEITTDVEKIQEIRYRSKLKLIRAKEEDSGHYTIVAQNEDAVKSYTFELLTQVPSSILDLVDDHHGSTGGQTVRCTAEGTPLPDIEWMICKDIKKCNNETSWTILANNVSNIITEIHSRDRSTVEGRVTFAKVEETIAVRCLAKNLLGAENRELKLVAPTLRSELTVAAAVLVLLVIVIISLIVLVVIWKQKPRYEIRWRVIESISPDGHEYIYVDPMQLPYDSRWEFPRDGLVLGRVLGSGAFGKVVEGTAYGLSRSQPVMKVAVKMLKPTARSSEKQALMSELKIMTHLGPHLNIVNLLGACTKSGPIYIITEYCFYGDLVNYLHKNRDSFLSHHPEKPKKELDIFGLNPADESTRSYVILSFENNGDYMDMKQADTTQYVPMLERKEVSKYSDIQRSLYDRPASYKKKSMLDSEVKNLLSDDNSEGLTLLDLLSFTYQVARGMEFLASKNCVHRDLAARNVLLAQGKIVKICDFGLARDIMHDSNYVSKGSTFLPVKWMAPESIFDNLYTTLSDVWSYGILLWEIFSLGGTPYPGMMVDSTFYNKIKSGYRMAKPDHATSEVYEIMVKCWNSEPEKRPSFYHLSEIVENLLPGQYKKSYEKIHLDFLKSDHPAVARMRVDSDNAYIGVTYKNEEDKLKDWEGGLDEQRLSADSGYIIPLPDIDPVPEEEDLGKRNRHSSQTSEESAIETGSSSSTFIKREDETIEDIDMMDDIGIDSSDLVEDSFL
- Experiment Description: Protein kinase selectivity panel
- Assay type: biochemical
- Cond: 1.0 μM compound, 10 μM ATP

Reference set (3 entries):
>  <Smiles Text>
CN(C)c1cc2cc(n1)CCCn1cc(c3ccccc31)C1=C(C(=O)NC1=O)c1cn(c3ccccc13)CCC2

>  <Experimental Target>
PDGFRα(h) (Homo sapiens, UniProt P16234)

>  <Result Value>
119 % of control

$$$$
>  <Smiles Text>
O=C1NC(=O)C2=C1c1cn(c3ccccc13)CCCc1ccc(c(N3CCCC3)n1)CCCn1cc2c2ccccc21

>  <Experimental Target>
PDGFRα(h) (Homo sapiens, UniProt P16234)

>  <Result Value>
113 % of control

$$$$
>  <Smiles Text>
O=C1NC(=O)C2=C1c1cn(c3ccccc13)CCCc1cc(nc(N3CCCC3)c1)CCCn1cc2c2ccccc21

>  <Experimental Target>
PDGFRα(h) (Homo sapiens, UniProt P16234)

>  <Result Value>
126 % of control

$$$$

The record that follows has no Activity at Protein Kinase Assays (% of control), PDGFRα(h) shown yet.
Log: PDGFRα(h) (Homo sapiens, UniProt P16234), molecule CN(C)c1nc2ccc1CCCCn1cc(c3ccccc31)C1=C(C(=O)NC1=O)c1cn(c3ccccc13)CCC2 , Activity at Protein Kinase Assays (% of control), PDGFRα(h) = 107 % of control

###

- Experimental Target: Syk(h) (Homo sapiens, UniProt P43405)
- Experiment Description: Protein kinase selectivity panel
- Assay type: biochemical
- Cond: 1.0 μM compound, 10 μM ATP
Each entry below lists one item and its recorded Activity at Protein Kinase Assays (% of control), Syk(h) value.

Reference set (3 entries):
>  <Compound>
O=C1NC(=O)C2=C1c1cn(c3ccccc13)CCCc1ccc(c(N3CCCC3)n1)CCCn1cc2c2ccccc21 [Cpd 7]

>  <Result Value>
109 % of control

$$$$
>  <Compound>
CN(C)c1cc2cc(n1)CCCn1cc(c3ccccc31)C1=C(C(=O)NC1=O)c1cn(c3ccccc13)CCC2 [Cpd 2]

>  <Result Value>
101 % of control

$$$$
>  <Compound>
CN(C)c1nc2ccc1CCCCn1cc(c3ccccc31)C1=C(C(=O)NC1=O)c1cn(c3ccccc13)CCC2 [Cpd 1]

>  <Result Value>
86 % of control

$$$$

The record that follows has no Activity at Protein Kinase Assays (% of control), Syk(h) shown yet.
In plain terms, O=C1NC(=O)C2=C1c1cn(c3ccccc13)CCCc1cc(nc(N3CCCC3)c1)CCCn1cc2c2ccccc21 [Cpd 6] has a documented Activity at Protein Kinase Assays (% of control), Syk(h) of 105 % of control
